Values compiled from the array DNA melting data of Ke et al. (doi:10.1101/2024.01.08.574731).

test: folding enthalpy; higher = less favourable; fluorescence melt of hairpins on a sequencing array, two-state fit; conditions: sodium 0.088 M
Please note: t applies when folding enthalpy is -20 kcal/mol or greater, and f applies otherwise.

As a guide, the following entries are already answered.
query_sequence="GAATCCGAAAGGACCTTC ((((((....)))..)))" class_assignment=t
query_sequence="GAAGGAGGAAACCCCTTC (((((.(....).)))))" class_assignment=f
query_sequence="GAAGGTGGAAACACTTTC (((.(((....))).)))" class_assignment=f
query_sequence="GATCGACCTTCGATC ((((((...))))))" class_assignment=f
query_sequence="GATCCACATCTGGATC ((((((....))))))" class_assignment=f
query_sequence="GTACGCGAAAGCGTGTAC ((((((....)))..)))" class_assignment=t

Is reported folding enthalpy greater than or equal to -20 kcal/mol here: GCTAGTCGAAAGACAGC (((.(((....))))))
f

Does folding enthalpy meet or surpass -20 kcal/mol for GTAATGCGAAAGCATAC (((.(((....)))))) ?
t

Could you please find out whether GGCAACGAAAGTTCCGCC ((((((....)))..))) has folding enthalpy that meets -20 kcal/mol or exceeds it?
f

Could you please find out whether GAACTCGGAAACGGGTTC ((((.((....)).)))) has folding enthalpy that meets -20 kcal/mol or exceeds it?
f

Is folding enthalpy for GAGGGCGAAAGCCAGCTC ((((((....)))..))) at or above -20 kcal/mol?
t

Given the entry GTAAGCCGAAAGGCGTAC (((.(((....))).))) , answer whether its folding enthalpy meets or surpasses -20 kcal/mol.
t

Evaluate GGCCCCGAAAGGGATGCC ((((((....)))..))) : folding enthalpy at minimum -20 kcal/mol?
f

I'd appreciate it if you could say whether GACGAAGGAAACTTCATC ((.((((....)))).)) has folding enthalpy at least equal to -20 kcal/mol.
t

In plain terms: is recorded folding enthalpy at least -20 kcal/mol for GCGATCGTTCGC ((((....)))) ?
f

// inclusive: folding enthalpy at least -20 kcal/mol? input: GCAGGACGAAAGTCATGC (((.(((....))).)))
f
